Entries annotated with measured log p
test: log P by HPLC on reversed-phase column (EEC directive 79/831 Annex V.A8); type: physicochemical; conditions: HPLC on reversed-phase column (footnote a)
readoutType: log p

>>> valuereported("O=C(NC1CC1)c1c([O-])n(Cc2ccc(Cl)nc2)c2cccc[n+]12 [Example I-1-154]")
1.59
>>> valuereported("O=C(COc1ccc(Cl)cc1)c1c([O-])n(Cc2cnc(Cl)s2)c2cccc[n+]12")
2.84
>>> valuereported("COCC(=O)c1c([O-])n(Cc2ccc(Cl)nc2)c2c(Cl)ccc[n+]12")
1.59
>>> valuereported("O=C(CCl)c1c([O-])n(Cc2cncnc2)c2cccc[n+]12")
0.77
>>> valuereported("Cc1cnn(CC(=O)c2c([O-])n(Cc3cnc(Cl)s3)c3cccc[n+]23)c1")
1.72
>>> valuereported("O=C(NC1CC1)c1c([O-])n(Cc2ccc(Cl)nc2)c2cccc[n+]12 [Example I-1-133]")
1.85
>>> valuereported("O=C(NC1CC1)c1c([O-])n(Cc2cncc(Cl)c2)c2cccc[n+]12")
1.52
>>> valuereported("CCOCC(=O)c1c([O-])n(C(C)c2ccc(Cl)nc2)c2cccc[n+]12 (centres unmarked)")
1.58
